- testedTarget: Zap1 (UniProt P47043)
- Sequence: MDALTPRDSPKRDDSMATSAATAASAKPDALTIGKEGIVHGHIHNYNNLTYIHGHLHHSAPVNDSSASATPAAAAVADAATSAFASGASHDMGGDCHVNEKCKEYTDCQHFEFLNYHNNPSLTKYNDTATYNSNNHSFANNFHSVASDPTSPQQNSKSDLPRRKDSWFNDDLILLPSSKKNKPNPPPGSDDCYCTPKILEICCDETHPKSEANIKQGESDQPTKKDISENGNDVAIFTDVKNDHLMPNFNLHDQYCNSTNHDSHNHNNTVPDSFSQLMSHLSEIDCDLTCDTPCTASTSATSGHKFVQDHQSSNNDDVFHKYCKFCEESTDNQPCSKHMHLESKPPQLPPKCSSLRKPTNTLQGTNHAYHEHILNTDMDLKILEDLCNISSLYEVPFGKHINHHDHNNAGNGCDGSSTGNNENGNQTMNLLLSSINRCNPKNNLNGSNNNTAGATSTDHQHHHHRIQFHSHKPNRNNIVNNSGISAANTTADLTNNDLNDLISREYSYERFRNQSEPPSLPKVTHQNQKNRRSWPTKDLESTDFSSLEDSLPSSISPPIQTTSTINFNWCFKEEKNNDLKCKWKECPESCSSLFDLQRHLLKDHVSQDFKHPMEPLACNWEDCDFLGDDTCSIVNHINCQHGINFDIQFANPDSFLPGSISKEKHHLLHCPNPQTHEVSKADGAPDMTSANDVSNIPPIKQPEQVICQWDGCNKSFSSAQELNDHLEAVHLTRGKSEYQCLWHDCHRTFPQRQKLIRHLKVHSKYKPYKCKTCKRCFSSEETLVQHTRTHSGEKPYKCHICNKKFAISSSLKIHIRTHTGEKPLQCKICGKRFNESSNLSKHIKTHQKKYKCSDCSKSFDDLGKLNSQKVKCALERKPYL
- testDetails: PBM E-score (8-mer binding enrichment) (E-score (-0.5 to 0.5)); higher = stronger / more preferred TF binding
- experimentalContext: protein concentration: 200 nM; construct: GST-full length
Over roughly 33,000 sequences, “E-score (-0.5 to 0.5)” has its median near -0.021; the highest 2% begin near 0.32. This excerpt belongs to a sample that is enriched for the highest values.
Hi there, I'd appreciate the recorded PBM E-score for every entry that follows.
Give bare numbers.

Example entries begin here.
GACCCTGC ... 0.283
ACCCCCGG ... -0.0785
CGGGATCC ... -0.0153

Items follow; give PBM E-score for each.
1. AGGGTATA
2. GGTTGTGA
3. AAGGTCCT
4. GAGGTCAA
5. ACTATAGT
6. CGGGCGAG
7. GGTTGTAA

[out]
1: 0.407; 2: 0.374; 3: 0.123; 4: 0.21; 5: 0.197; 6: -0.0126; 7: 0.278

Items follow; give PBM E-score for each.
1. ACTAGATA
2. CGGATTCC
3. CGTTGTTA
4. CCTTATAG
5. AACCCCCG
6. AGGGTATC

[out]
[0.115, -0.0353, 0.102, 0.262, -0.149, 0.364]

Items follow; give PBM E-score for each.
1. ACGGTATG
2. AGGGTAGC
3. AACCTTAA
4. CAGGTCAC
5. GATAGCTA
6. AACCCGGA
7. AAGGTCGT

[out]
-0.0688
0.313
0.352
0.195
-0.298
0.332
0.334
